- target or system: Genome polyprotein (Dengue virus type 2 (strain Thailand/NGS-C/1944))
- Sequence (P14340 1346-1475 limits assumed): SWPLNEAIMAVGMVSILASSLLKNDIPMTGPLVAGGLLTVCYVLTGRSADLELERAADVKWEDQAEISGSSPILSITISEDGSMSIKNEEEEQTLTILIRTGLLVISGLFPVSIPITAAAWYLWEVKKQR
- Sequence (P14340 1476-2093 limits assumed): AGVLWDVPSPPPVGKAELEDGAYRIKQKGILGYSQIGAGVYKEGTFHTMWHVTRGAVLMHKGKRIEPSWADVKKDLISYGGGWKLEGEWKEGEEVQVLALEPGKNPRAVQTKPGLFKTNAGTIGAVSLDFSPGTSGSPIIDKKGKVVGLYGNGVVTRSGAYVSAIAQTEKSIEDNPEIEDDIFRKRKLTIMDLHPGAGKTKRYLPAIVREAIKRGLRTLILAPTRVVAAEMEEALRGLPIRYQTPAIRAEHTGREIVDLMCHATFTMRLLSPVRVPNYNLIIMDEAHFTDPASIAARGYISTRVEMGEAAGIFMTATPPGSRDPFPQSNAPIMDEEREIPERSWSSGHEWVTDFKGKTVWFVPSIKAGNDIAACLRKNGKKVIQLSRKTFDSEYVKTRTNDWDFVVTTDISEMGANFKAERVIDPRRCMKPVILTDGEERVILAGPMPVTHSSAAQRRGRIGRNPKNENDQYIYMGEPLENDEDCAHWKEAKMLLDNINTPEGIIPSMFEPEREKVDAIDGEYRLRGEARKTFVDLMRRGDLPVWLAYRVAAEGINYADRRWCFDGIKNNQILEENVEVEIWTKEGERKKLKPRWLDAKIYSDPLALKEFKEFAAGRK
- assay details: DENV2 Protease Assay
- condition description: pH 8.5
- Method: To measure the inhibitory activities of the compounds, the DENV2 NS2B-NS3 protease activities were measured in the presence of the compounds using Bz-Nle-Lys-Arg-Arg-AMC as a substrate. […] All reactions were performed in 96-well plates with a final volume of 50 µL per each wells using the FLx800 fluorescence microplate reader (excitation = 380 nm; emission = 460 nm).
pIC50: −log10 of the molar value.
Catalogue of pIC50 values
property label: pIC50

# compound structure, property label, value operator, value measured
rows = [
    ("O=C1c2ccccc2C(=O)N1c1ccc(S(=O)(=O)Nc2cccc(Cl)c2)cc1", "pIC50", "<", 4.00),
    ("O=C1c2ccccc2C(=O)N1c1ccc(S(=O)(=O)Nc2ccc([N+](=O)[O-])cc2)cc1", "pIC50", "<", 4.00),
    ("O=C1c2ccccc2C(=O)N1c1ccc(S(=O)(=O)Nc2cccc3ccccc23)cc1", "pIC50", "=", 3.91),
    ("CCc1ccc(NS(=O)(=O)c2ccc(N3C(=O)c4ccccc4C3=O)cc2)cc1", "pIC50", "=", 4.32),
    ("S=C(Nc1ccc(C(c2c[nH]c3ccccc23)c2c[nH]c3ccccc23)cc1)Nc1cccc(Br)c1", "pIC50", "<", 4.00),
]
